Ref: the Human Domainome abundance scans (Beltran et al. 2025)

B1: Far upstream element-binding protein 2, residues 142 to 214; numbered along this chain, Q92945 (parent)
chain: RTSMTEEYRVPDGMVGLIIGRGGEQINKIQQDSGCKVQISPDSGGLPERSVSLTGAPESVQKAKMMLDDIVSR

- Variants of: B1
- TEST_SUMMARY: abundance fitness (aPCA) (normalised: wild type 0, dead -1); higher = more abundant; growth selection in yeast, the domain comes from the species named
- TEST_PARAMETERS: Homo sapiens
OBSERVED_PROPERTY: abundance fitness
Just the number, please, no unit after it.

Some solved entries appear below for comparison.
- VARIANT_STRING: "A56N"
  abundance fitness: -0.272
- VARIANT_STRING: "G20N"
  abundance fitness: -0.389

query: Using the record for R49K , report its abundance fitness.
result: -0.092

query: // next record P41E
result: -0.04

query: // next record I26S
result: -0.693

query: // next record D32V
result: -0.04

query: // next record S52E
result: 0

query: // next record K64A
result: -0.558

query: // next record S52F
result: 0.007

query: // next record S59D
result: 0.003

query: // next record Q30M
result: 0.107

query: // next record I39A
result: -0.457

query: // next record E24R
result: -0.03

query: // next record G23K
result: -0.177

query: // next record S59L
result: -0.619

query: // next record P47W
result: -0.32

query: // next record D42L
result: -0.232
